Quick reference for EC50 (nM) for cAMP generation, Alpha Screen among some binders
Target: T1, human VPAC2 receptor (human) (UniProt P41587)
T1 sequence: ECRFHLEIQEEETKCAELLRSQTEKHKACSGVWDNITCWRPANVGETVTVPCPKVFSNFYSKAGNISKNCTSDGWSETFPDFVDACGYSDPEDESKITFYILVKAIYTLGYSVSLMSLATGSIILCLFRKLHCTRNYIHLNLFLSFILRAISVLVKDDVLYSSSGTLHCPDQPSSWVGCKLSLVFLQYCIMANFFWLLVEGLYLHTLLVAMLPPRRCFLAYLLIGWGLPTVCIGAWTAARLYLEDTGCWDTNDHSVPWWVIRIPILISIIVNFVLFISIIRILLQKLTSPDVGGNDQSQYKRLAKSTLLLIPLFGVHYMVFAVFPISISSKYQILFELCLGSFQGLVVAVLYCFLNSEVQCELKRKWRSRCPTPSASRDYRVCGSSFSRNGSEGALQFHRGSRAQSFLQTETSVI
Where no end group is shown, it is not given here.
readout.kind: EC50 (nM) for cAMP generation, Alpha Screen

* HSDAVFTDNYTRLRKAAAAKKYLQSIKNSRTSPPP-NH2 [P97] | 0.64
* HSDAVFTDNYTRLRKQAAAKKYLQSIKNSRTSPPP-NH2 [P96] | 0.9
* HSDAVFTDNYTRLRKQVAAKKYLQSIKNSRTSPPP-NH2 [P5] | 1.5
* HSDAVFTDNYTRLRXQVAAXKYLQSIKNSRTSPPP (N-terminal hexanoyl (C6); Aib (amino isobutyric acid) at positions 15 and 20; C-terminal amide (-NH2)) [P309] | 0.16
* Ac-HSDAVFTDNYTRLRKQVAAKKYLQSIKNSRTSPPP-NH2 [P32] | 0.32
